The following compounds are shown together with reported viability, T/C values.
system: KRAS patient-derived spheroids with HUVEC/MSC, viability; test: Anticancer human tumor 323965-272-R-J2-PDC patient-derived pancreatic carcinoma cell line growth inhibition [KRAS2]; conditions: second compound 0.316 µM; first compound 0.0316 µM; hits give low values;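 further: spheroids exposed to agents for 7 days; 100% = DMSO vehicle control viability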

[
  {
    "compound": "CC1OCC2(CCN(c3cnc(Sc4ccnc(N)c4Cl)c(N)n3)CC2)C1N (centres undefined) + C=CC(=O)N1CCN(c2nc(=O)n(-c3c(C)ccnc3C(C)C)c3nc(-c4c(O)cccc4F)c(F)cc23)C(C)C1",
    "viability, T/C, %": 39.1
  },
  {
    "compound": "COC(=O)c1ccc2c(C(=Nc3ccc(N(C)C(=O)CN4CCN(C)CC4)cc3)c3ccccc3)c(O)[nH]c2c1 + C=CC(=O)N1CCN(c2nc(=O)n(-c3c(C)ccnc3C(C)C)c3nc(-c4c(O)cccc4F)c(F)cc23)C(C)C1",
    "viability, T/C, %": 56
  },
  {
    "compound": "CN(C)C/C=C/C(=O)Nc1cc2c(Nc3ccc(F)c(Cl)c3)ncnc2cc1O[C@H]1CCOC1 + C=CC(=O)N1CCN(c2nc(OCC3CCCN3C)nc3c2CCN(c2cccc4cccc(C)c24)C3)CC1CC#N",
    "viability, T/C, %": 39.2
  },
  {
    "compound": "Cn1nccc1Nc1nccc(-c2cc3c(s2)C(C)(C)N(CCN2CCOCC2)C3=O)n1 + C=CC(=O)N1CCN(c2nc(=O)n(-c3c(C)ccnc3C(C)C)c3nc(-c4c(O)cccc4F)c(F)cc23)C(C)C1",
    "viability, T/C, %": 48.3
  },
  {
    "compound": "CC1COCCN1c1cc(-c2ccnn2C)c2ccnc(-c3ccn[nH]3)c2n1 (centres undefined) + CC1OCC2(CCN(c3cnc(Sc4ccnc(N)c4Cl)c(N)n3)CC2)C1N",
    "viability, T/C, %": 23.2
  },
  {
    "compound": "CC(=O)Nc1cccc(-n2c(=O)n(C3CC3)c(=O)c3c(Nc4ccc(I)cc4F)n(C)c(=O)c(C)c32)c1 + CNCc1ccccc1-c1csc(C(C)Nc2nc(C)nc3cc(OC)c(OC)cc23)c1",
    "viability, T/C, %": 24.8
  },
  {
    "compound": "CC1(C)CCC(CN2CCN(c3ccc(C(=O)NS(=O)(=O)c4ccc(NCC5CCOCC5)c([N+](=O)[O-])c4)c(Oc4cnc5[nH]ccc5c4)c3)CC2)=C(c2ccc(Cl)cc2)C1 + C=CC(=O)N1CCN(c2nc(=O)n(-c3c(C)ccnc3C(C)C)c3nc(-c4c(O)cccc4F)c(F)cc23)C(C)C1",
    "viability, T/C, %": 64.6
  },
  {
    "compound": "CC(=O)OC12COC1CC(O)C1(C)C(=O)C(O)C3=C(C)C(OC(=O)C(O)C(NC(=O)OC(C)(C)C)c4ccccc4)CC(O)(C(OC(=O)c4ccccc4)C21)C3(C)C (centres undefined) + CNCc1ccccc1-c1csc(C(C)Nc2nc(C)nc3cc(OC)c(OC)cc23)c1",
    "viability, T/C, %": 24.3
  },
  {
    "compound": "CC(=O)OC12COC1CC(O)C1(C)C(=O)C(O)C3=C(C)C(OC(=O)C(O)C(NC(=O)OC(C)(C)C)c4ccccc4)CC(O)(C(OC(=O)c4ccccc4)C21)C3(C)C (centres undefined) + COc1cc2nc(C)nc(NC(C)c3cc(N)cc(C(F)(F)F)c3)c2cc1OC1CCOC1",
    "viability, T/C, %": 24.5
  },
  {
    "compound": "CC1(C)CCC(CN2CCN(c3ccc(C(=O)NS(=O)(=O)c4ccc(NCC5CCOCC5)c([N+](=O)[O-])c4)c(Oc4cnc5[nH]ccc5c4)c3)CC2)=C(c2ccc(Cl)cc2)C1 + C=CC(=O)N1CCN(c2nc(OCC3CCCN3C)nc3c2CCN(c2cccc4cccc(C)c24)C3)CC1CC#N",
    "viability, T/C, %": 59.6
  },
  {
    "compound": "O=C(c1cc(Cc2n[nH]c(=O)c3ccccc23)ccc1F)N1CCN(C(=O)C2CC2)CC1 + CNCc1ccccc1-c1csc(C(C)Nc2nc(C)nc3cc(OC)c(OC)cc23)c1",
    "viability, T/C, %": 94.9
  },
  {
    "compound": "CN(C)C/C=C/C(=O)Nc1cc2c(Nc3ccc(F)c(Cl)c3)ncnc2cc1O[C@H]1CCOC1 + C=CC(=O)N1CCN(c2nc(=O)n(-c3c(C)ccnc3C(C)C)c3nc(-c4c(O)cccc4F)c(F)cc23)C(C)C1",
    "viability, T/C, %": 41.8
  },
  {
    "compound": "CN(C)C/C=C/C(=O)Nc1cc2c(Nc3ccc(F)c(Cl)c3)ncnc2cc1O[C@H]1CCOC1 + COc1cc2nc(C)nc(NC(C)c3cc(N)cc(C(F)(F)F)c3)c2cc1OC1CCOC1",
    "viability, T/C, %": 51.2
  },
  {
    "compound": "CCN1CCN(Cc2ccc(Nc3ncc(F)c(-c4cc(F)c5nc(C)n(C(C)C)c5c4)n3)nc2)CC1 + C=CC(=O)N1CCN(c2nc(=O)n(-c3c(C)ccnc3C(C)C)c3nc(-c4c(O)cccc4F)c(F)cc23)C(C)C1",
    "viability, T/C, %": 38.7
  },
  {
    "compound": "COc1cc(Nc2ncc3c(n2)-c2ccc(Cl)cc2C(c2c(F)cccc2OC)=NC3)ccc1C(=O)O + CC1OCC2(CCN(c3cnc(Sc4ccnc(N)c4Cl)c(N)n3)CC2)C1N",
    "viability, T/C, %": 57.2
  },
  {
    "compound": "CC(C)NCC(C(=O)N1CCN(c2ncnc3c2C(C)CC3O)CC1)c1ccc(Cl)cc1 (centres undefined) + C=CC(=O)N1CCN(c2nc(OCC3CCCN3C)nc3c2CCN(c2cccc4cccc(C)c24)C3)CC1CC#N",
    "viability, T/C, %": 58.8
  },
  {
    "compound": "Cn1ncnc1[C@H]1c2n[nH]c(=O)c3cc(F)cc(c23)N[C@@H]1c1ccc(F)cc1 + C=CC(=O)N1CCN(c2nc(=O)n(-c3c(C)ccnc3C(C)C)c3nc(-c4c(O)cccc4F)c(F)cc23)C(C)C1",
    "viability, T/C, %": 64
  },
  {
    "compound": "Cn1ncnc1[C@H]1c2n[nH]c(=O)c3cc(F)cc(c23)N[C@@H]1c1ccc(F)cc1 + C=CC(=O)N1CCN(c2nc(OCC3CCCN3C)nc3c2CCN(c2cccc4cccc(C)c24)C3)CC1CC#N",
    "viability, T/C, %": 56.1
  },
  {
    "compound": "CC1COCCN1c1cc(-c2ccnn2C)c2ccnc(-c3ccn[nH]3)c2n1 (centres undefined) + C=CC(=O)N1CCN(c2nc(=O)n(-c3c(C)ccnc3C(C)C)c3nc(-c4c(O)cccc4F)c(F)cc23)C(C)C1",
    "viability, T/C, %": 28.8
  }
]
